assay: yeast display, Sf9 membrane polyspecificity reagent, FACS + sequencing; frameworks hold sequencing errors
result type: polyreactivity (PSR sort gate)

sequence_entry=QVQLVESGGGLVQAGGSLRLSCAASGSTFRLYAMGWYRQAPGKERELVAAISSRGGTTYYADSVKGRFTISRDNAKNTVYLQMNSLKPEDTAVYYCAAPRASQYGDDYWGHGTQVTVSS result_type="polyreactivity (PSR sort gate)" measurement="high polyreactivity"
sequence_entry=QVQLVESGGGLVQAGGSLRLSCAASGRIFPSYTMGWYRQAPGKERELVAGITKSGSSTYYADSVKGRFTISRDNAKNTVYLQMNSLKPEDTAVYYCAAVYGNPSYRYGYWGQGTQVTVSS result_type="polyreactivity (PSR sort gate)" measurement="high polyreactivity"
sequence_entry=QVQLHESGGGLVQAGGGLRLTCAASGSISSTGFMGWYRQAPCKELEPVAAIAPGPTTYYADSGKGRFTISRDNAKNTVYLQMTSPRPEDTAVNYGAVFTDNRVAFLYWGQGTQVTVSS result_type="polyreactivity (PSR sort gate)" measurement="low polyreactivity"
sequence_entry=QVQLVESGGGLVQAGGSLRLSGAASGFIFGYYAMGWYRQAPGKERELVAAITSRGGSTYYADSVKGRFTISRDNAKNTVYLQMNSLKPEDTAVYYCAAGYNGYGLQYYYWGQGTQVTVSS result_type="polyreactivity (PSR sort gate)" measurement="high polyreactivity"
sequence_entry=QVQHVDSGGGLVQAGGSLRLSCAASGSSFGTYDMGWYRQAPGKERELVARISGGGSTYYADSVKGRLTISRDNAKNTVYFQMNRLKPEDTAVYYCNVRKWAYWSHAFIYTYWGQGTQVTVSS result_type="polyreactivity (PSR sort gate)" measurement="high polyreactivity"
sequence_entry=QVQLVESGGGLFQAGGSLRLSCAASGFIFLLNAMGWYRQAPGKERELVAAINSDGSTNYADSVKGRFTISRDNAKNTFYLQMNSLKPEDTGVYYCAARSFTLRGYDYWGQGTQVTVSS result_type="polyreactivity (PSR sort gate)" measurement="low polyreactivity"
sequence_entry=QVQLVESGGGLVQAGGSLRLSCAASGFIFSGYAMGWYRQAPGKERELVAAIRWNGGRTYYADSVKGRFTISRDNAKNTVYLQMNSLKPEDTAVYYCAAGSGRDYGYRYFFWRYDYWGQGTQVTVSS result_type="polyreactivity (PSR sort gate)" measurement="high polyreactivity"
sequence_entry=QVQLVESGGGLVQAGGSLRLSCAASGLIFYHNTMGWYRQAPGKEREFVASITQSGGSTYYADSVKGRFTISRDNAKNTVYLQMNSLKPEDTAVYYCAKRLRPGGYWYDYWGQGTQVTVSS result_type="polyreactivity (PSR sort gate)" measurement="high polyreactivity"
sequence_entry=QVQLVESGGGLVQAGGSLRLSCAASGRIFEGYAMGWYRQAPGKEELVAAITSDASTYYADSVKGRFTISRDNAKNTVYLQMNSLKPEDTAVYYCAADTYDNDYYYWGQGTQVTVSS result_type="polyreactivity (PSR sort gate)" measurement="high polyreactivity"
sequence_entry=QVQLVESGGGLVQAGGSLRLSCAASGRTFVRNAMGWYRQAPGKERELVAAISSIGDSTYYADSVKGRFTISRDNAKNTVYLQMNSLKPEDTAVYYWAAEWVTSYYNYYHWGQGTLVTVSS result_type="polyreactivity (PSR sort gate)" measurement="low polyreactivity"
sequence_entry=QVQLVESGGGLVQAGGSLRLSCAASGRTFKYNVMGWYRQAPGKERELVAAISSGGGTNYADSVKGRFTISRDNAKNTVYLQMNSLKPEDTAVYYCAAKYAWRLLEMYYWGQGTQVTVSS result_type="polyreactivity (PSR sort gate)" measurement="low polyreactivity"
sequence_entry=QVQLVESGGGLVQAGGSLRLSCAASGRIFYPNAMGWYRQAPGKERELVAAISWSGGSTYYADSVKGRFTISRDNAKNTVYLQMNSLKPEDTAVYFCAAKPYQVSSYDFSLRDYWGQGTQVTVSS result_type="polyreactivity (PSR sort gate)" measurement="low polyreactivity"
sequence_entry=QVQLVESGGGLVQAGGSLRLSCAASGSTFFANAMGWYRQAPGKERELVAAITSGGSTYYADSVKVRFTISRDNAKNTVYLQMNSLKPEDTAVYYCAAPLCGGARWGRWWLYDSWGQGTQVNVSS result_type="polyreactivity (PSR sort gate)" measurement="low polyreactivity"
sequence_entry=QVQLVESGGGLVQAGGSLRLICAASGLTFVYYTKRSYTQAPGKEREFVAGINSGGSTYYADSVKGRFTISRDNAKNTVYVQMNSLKPVDTAVYYCAAVERGYRRFRRIYDYWGQGTQVTVSS result_type="polyreactivity (PSR sort gate)" measurement="high polyreactivity"
sequence_entry=QVQLVESGGGLVQAGGSLRLSCAASGRTFRYYAMGWYRQAPGKERELVAAIDTSSGSTYYADSVKGRFTISRDYAKNTVYLQMNSLKPEDTAVYYCNANWWIPLIYDYWGQGTQVTVSS result_type="polyreactivity (PSR sort gate)" measurement="low polyreactivity"
sequence_entry=QVQLVESGGGLVQAGGSLRLSCAASGSIFTSYAMGWYRQAPGKERELVAGITRGGRTYYADSVKGRFTISRDNAKNTVYLQMNSLKPEDTAVYYCAALSSRHFVFTVDYWGQGTQVTVSS result_type="polyreactivity (PSR sort gate)" measurement="high polyreactivity"
sequence_entry=QVQLVESGGGLVQAGGSLRFSCAASGLYYYAMGWYRQAPGKERALVAVITYSGGSTYYADSVKGRFTISRDNGKNSVYLQMNSLKPEDTAVYNCAAEDYYVALPGLYDYWGQGTQVTVSS result_type="polyreactivity (PSR sort gate)" measurement="low polyreactivity"
sequence_entry=QVQLVESGGGLVQAGGSLRLSCAASGSNFNPYDLGWYRQAPGKERELVAAIDWSGGSTYYADSVKGRFTISRDNAKNTVYLQMNSLKPEDTAVYYCNAESYQDTLFGADNDYDYWGQGTLVTVSS result_type="polyreactivity (PSR sort gate)" measurement="low polyreactivity"
sequence_entry=QVQLVESGGGLVQAGGSLRLSCAASGRIFFYYAMGWYRQAPGTERELVAAITSGGNTNYADSVKGRFTISRDNAKNTVYLQMNSLKPEDTAVYYCAVDSWEYWRRGIYYYRFYYWGQGTQVTVSS result_type="polyreactivity (PSR sort gate)" measurement="low polyreactivity"
sequence_entry=QVQLVESGVGIVQAGGSLRLSCAASGRIFDLYAMVWYRQAPGKEREFVAAISLSGGSTYYADSVKGRFTISRDNAKNTVYLQMNSLKPEDTAVYYCAADHTGKTYDYNYWGQGTQVTVSS result_type="polyreactivity (PSR sort gate)" measurement="low polyreactivity"
sequence_entry=QVQLVESGGGLVQAGGSLRLSCAASGRIFTPYVMGWYIQAPGKERELVADINLSGDSTSYADSVKGRFTISRDNAKNTVYLQMNSLKPEDTAVYYCAADFWLVSFQWDFEYDYWGQGTHVTVSS result_type="polyreactivity (PSR sort gate)" measurement="low polyreactivity"

Cited source: the nanobody polyreactivity screen of Harvey et al. (2022)
